# method notes: chemical genetic growth profiling, strain panel (AID 1159580);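 further: tested at 20 µM; growth read once vehicle control cultures reached saturation at 30 °C; 1 = growth at the plate median or of vehicle wells; lower values mean less growth of the strain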
# experimental conditions: S. cerevisiae deletion strains, growth OD, locus YAL040C, strain CLN3
The campaign covered roughly 5,500 compounds. About 2,000 (36%) were called active. Not shown: some 18% with an inconclusive outcome. No stated cut-off is given here; in the data, active means normalized growth mostly below about 0.91 (no sharp cut-off); inconclusive means no clear call, values can overlap the other calls; inactive means mostly above about 0.92. This is one part of the list.
Your answer must be one of the following: T for active, F for inactive

{"columns": ["compound", "answer label"],
 "data": [
  ["NC(N)=NCCCCN=C(N)N", "F"]
]}

QUERY: # lookup: test call for O=C1CCCN1CC#CCN1CCCC1
RESULT: F

QUERY: Hi, do you know how NC(=NCc1ccc(Cl)c(Cl)c1)NC(=O)c1nc(Cl)c(N)nc1N came out in this test?
RESULT: F

###

# method notes: chemical genetic growth profiling, strain panel (AID 1159580)
# experimental conditions: S. cerevisiae deletion strains, growth OD, locus YJL187C, strain SWE1, active compounds read low
Screen size: about 5,500 compounds; about 2,000 (36%) were called active. Not shown: some 18% with an inconclusive outcome. The list shows a part of the results. Where a SMILES comes first, the peptide text is derived from it.
property: normalized growth
Answers are plain numbers.

For each of the molecules below, note its normalized growth.
1. O=C1c2ccccc2C2(c3ccccc3)NCCN12 (stereo not given)
2. O=[N+]([O-])c1ccc(C(O)C(O)CO)cc1 (stereo not given)
3. CC(=O)N[C@@H](CC(=O)O)C(=O)N[C@@H](CCC(=O)O)C(=O)O (Ac-Asp-Glu-OH)
4. NC(=O)N[C@@H]1O[C@H](CO)[C@@H](O)[C@H](O)[C@H]1O
5. CC1(C)N([O-])[N+](=O)C1(C)Br (stereo not given)

RESULT:
1: 0.997; 2: 0.993; 3: 1; 4: 1.01; 5: 1.01

Look at each molecule and report its normalized growth.
1. COP(=S)(OC)Oc1ccc([N+](=O)[O-])cc1
2. COc1ccc(-c2nc(-c3ccc(-c4ccccc4)cc3)cs2)cc1
3. CC(=O)N[C@@H](CCC(=O)O)C(=O)O
4. CC1C/C=C/C=C/C=C/C=C/C(O[C@@H]2O[C@H](C)[C@@H](O)[C@H](N)[C@@H]2O)CC2OC(O)(CC(O)CC3OC3/C=C/C(=O)O1)CC(O)C2C(=O)O (stereo not given in full)

RESULT:
1.02
0.968
1.03
1

The molecule listed as COP(=S)(OC)Oc1ccc(Sc2ccc(OP(=S)(OC)OC)cc2)cc1 has a reported normalized growth of 1.01

###

# method notes: chemical genetic growth profiling, strain panel (AID 1159580)
# experimental conditions: S. cerevisiae deletion strains, growth OD, locus YDR159W, strain sac3, active compounds read low
The campaign covered roughly 5,500 compounds. About 2,000 (36%) were called active. Roughly 18% stayed inconclusive and do not appear here. Some of the results follow.
Please respond with reported normalized growth for every item in the list.
Give bare numbers.

Please review the entries below; each comes with its answer.
{"columns": ["compound", "normalized growth"],
 "data": [
  ["C=C1C(=O)[C@]23[C@H](O)[C@H]1CC[C@H]2[C@@]12CO[C@]3(O)[C@H](O)[C@@H]1C(C)(C)CC[C@@H]2O", 1],
  ["COC[C@]12CN(C=O)C3[C@@H]4[C@H](OC)C1[C@]3(C1CC3(O)C(OC)C(O)C4(OC(C)=O)C1C3OC(=O)c1ccccc1)[C@@H](OC)C[C@H]2O (some centres not stated)", 1.01],
  ["CC(=O)O[C@H]1C[C@@]2(C)[C@@H](C[C@@H](O)C3[C@]2(C)CC[C@H]2[C@H](C)[C@H](O)CC[C@]32C)/C1=C(/CCC=C(C)C)C(=O)O (some centres not stated)", 0.989],
  ["O=C(O)CCCCCCCC(=O)O", 0.997],
  ["Cc1cc(CC(=O)O)n(C)c1C(=O)c1ccc(Cl)cc1", 1.02],
  ["CC(=O)C1CCC2C3CCC4C[C@H](O)CCC4(C)C3C[C@H](O)C12C (some centres not stated)", 0.982]
]}

Shift focus to the following entry.
What the record says about C=CCS(=O)C[C@H](N)C(=O)O (some centres not stated) : normalized growth is 0.996

###

# method notes: chemical genetic growth profiling, strain panel (AID 1159580)
# experimental conditions: S. cerevisiae deletion strains, growth OD, locus YML032C, strain rad52, active compounds read low
In all, about 5,500 compounds went through this assay and about 2,000 (36%) were called active. About 18% were inconclusive and are not listed. The list shows a part of the results.
property: normalized growth
Give bare numbers.

{"columns": ["compound", "normalized growth"],
 "data": [
  ["CN(C)CCC(c1ccccc1)c1ccccn1 (stereo unspecified)", 1.01],
  ["COc1ccc2c(c1)OCC(Cc1ccc(OC)c(OC(C)=O)c1)C2=O (stereo unspecified)", 1],
  ["CC(C)c1nc(N(C)S(C)(=O)=O)nc(-c2ccc(F)cc2)c1/C=C/[C@@H](O)C[C@@H](O)CC(=O)O", 1.01],
  ["CN1CCC[C@@H]1CCO[C@](C)(c1ccccc1)c1ccc(Cl)cc1", 0.98]
]}

// each compound listed below needs its normalized growth
1. CCCNC(=O)NS(=O)(=O)c1ccc(Cl)cc1
2. OC[C@H]1O[C@@H](n2cnc3c(NCc4ccco4)ncnc32)[C@H](O)[C@@H]1O

RESULT:
1. 0.996
2. 0.988

###

# method notes: chemical genetic growth profiling, strain panel (AID 1159580);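 further: tested at 20 µM; growth read once vehicle control cultures reached saturation at 30 °C; 1 = growth at the plate median or of vehicle wells; lower values mean less growth of the strain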
# experimental conditions: S. cerevisiae deletion strains, growth OD, locus YPL241C, strain CIN2, active compounds read low
About 2,000 (36%) of roughly 5,500 compounds were called active. Not shown: some 18% with an inconclusive outcome. The list shows a part of the results.
property: normalized growth
One number for each entry.

In the examples that follow, each entry is paired with its recorded normalized growth.
{"columns": ["molecule", "normalized growth"],
 "data": [
  ["NCCCCC(=O)O", 0.963],
  ["O=C(Oc1ccc(Cl)cc1Cl)c1c(Cl)cccc1Cl", 0.954],
  ["COC(=O)/C(C)=C\\CC12OC(C)(C)C3CC(C=C4C(=O)c5c(OC)c6c(c(CC=C(C)C)c5OC431)OC(C)(CCC=C(C)C)C=C6)C2=O (stereo unspecified)", 1]
]}

Batch request: normalized growth for each of the following molecules.
1. CCOC(=O)CNc1ccc(Cl)c(Cl)c1
2. c1ccc2c(CC3=NCCN3)cccc2c1
3. O=C(O)/C=C/C(O)c1ccc(Cl)cc1 (stereo unspecified)

RESULT:
1. 1
2. 1
3. 0.985

###

# method notes: chemical genetic growth profiling, strain panel (AID 1159580);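 further: tested at 20 µM; growth read once vehicle control cultures reached saturation at 30 °C; 1 = growth at the plate median or of vehicle wells; lower values mean less growth of the strain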
# experimental conditions: S. cerevisiae deletion strains, growth OD, locus YNL153C, strain GIM3, active compounds read low
Screen size: about 5,500 compounds; about 2,000 (36%) were called active. Another 18% or so got no clear call; they are omitted. Some of the results follow.
For each of the molecules below, state its normalized growth.
Answers are plain numbers.

Some solved cases for reference:
{"columns": ["molecule", "value observed"],
 "data": [
  ["O=C1C2C3C=CC(C3)C2C(=O)N1c1ccc(F)c(F)c1 (configuration not stated)", 0.983],
  ["Clc1ccc(C(c2ccccc2Cl)C(Cl)Cl)cc1 (configuration not stated)", 1.01],
  ["CCc1cccc(C)c1NC(=O)CC(C)(C)CC(=O)O", 1.01]
]}

State recorded normalized growth for all listed molecules.
1. O=S(=O)(c1ccc(Cl)cc1)c1cc(C(F)(F)F)cc(C(F)(F)F)c1
2. NC(=O)NC1NC(=O)NC1=O (configuration not stated)
3. O=C(O)/C=C/C(O)c1ccc(Cl)cc1 (configuration not stated)

RESULT:
1: 1.01; 2: 0.987; 3: 0.997

Batch request: normalized growth for each of the following molecules.
1. O=C(CN1CCOCC1)Nc1cc(C(F)(F)F)cc(C(F)(F)F)c1
2. Cc1nn(-c2ccccc2)nc1-c1nnc(-c2ccc(Cl)cc2)o1
3. Clc1cnc(Oc2ccc(Oc3ncc(Cl)cc3Cl)cc2)c(Cl)c1
4. O=C(Nc1cc(C(F)(F)F)cc(C(F)(F)F)c1)C(c1ccccc1)C1CCCC1 (configuration not stated)
5. CC(=O)c1ccc(N2C(=O)CSCC2=O)cc1
6. COc1ccc(-c2nc(-c3ccc(-c4ccccc4)cc3)cs2)cc1

RESULT:
[0.99, 1, 1, 1.01, 1.01, 1.02]

###

Can you tell me normalized growth for the items I'm about to list?
# method notes: chemical genetic growth profiling, strain panel (AID 1159580);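 further: tested at 20 µM; growth read once vehicle control cultures reached saturation at 30 °C; 1 = growth at the plate median or of vehicle wells; lower values mean less growth of the strain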
# experimental conditions: S. cerevisiae deletion strains, growth OD, locus YNL209W, strain ssb2, active compounds read low
Out of some 5,500 compounds screened, about 2,000 (36%) were called active. Inconclusive results (about 18%) are left out. The list shows a part of the results.
Give bare numbers.

Below: 5 compounds and their reported normalized growth.
{"columns": ["compound", "property", "value observed"],
 "data": [
  ["Clc1ccc(C(c2ccccc2Cl)C(Cl)Cl)cc1 (stereo not drawn)", "normalized growth", 0.983],
  ["c1ccc2c(CC3=NCCN3)cccc2c1", "normalized growth", 0.968],
  ["NC1(C(=O)O)CC1", "normalized growth", 1.04],
  ["CC(=O)OC/C=C(\\C)CC/C=C(\\C)CC/C=C(\\C)CC/C=C(\\C)CC/C=C(\\C)CC/C=C(\\C)CC/C=C(\\C)CC/C=C(\\C)CCC=C(C)C", "normalized growth", 1],
  ["CC(=O)C1CCC2C3CCC4C[C@H](O)CCC4(C)C3C[C@H](O)C12C (stereo partly drawn)", "normalized growth", 0.967]
]}

Return reported normalized growth values for all items listed beneath this line.
1. NCCCNCCSP(=O)(O)O
2. NC(=O)CS(=O)C(c1ccccc1)c1ccccc1 (stereo not drawn)
3. C=CCS(=O)C[C@H](N)C(=O)O (stereo partly drawn)
4. Cc1nnc(NS(=O)(=O)c2ccc(N)cc2)s1
5. CC12CCC3C(=CCc4cc(O)ccc43)C1CCC2=O (stereo not drawn)
6. C[C@]12CCC3c4ccc(OC(=O)c5ccccc5)cc4CCC3C1CCC2=O (stereo partly drawn)
7. COC(=O)[C@@H]1OC(=O)C2OC23[C@@]1(C)CCC1[C@@]2(C)CCC(=O)C(C)(C)C2C[C@@H](OC(C)=O)[C@]13C (stereo partly drawn)
8. C[C@]12CCC3c4ccc(O)cc4CCC3C1CCC2=O (stereo partly drawn)

RESULT:
[0.981, 1.01, 0.985, 1.01, 0.973, 0.989, 1.02, 1.02]
